Source listed as patent US20090111847A1.

test system: Nilaparvata lugens; assay: Insecticidal activity against Nilaparvata lugens by spraying (mortality after 24 hours); format: in vivo; details: 500 ppm; spraying 2 ml; counted after 24 hours
Could you please report measured Mortality (%) (500 ppm) Nilaparvata lugens for the items listed next?
Answers are plain numbers, in %.

Please look at the items below and tell me Mortality (%) (500 ppm) Nilaparvata lugens for each one, in order.
1. CCOC1CC(O)N2CCN(Cc3ccc(Cl)nc3)C2=C1[N+](=O)[O-] (centres unmarked) [Compound 45]
2. CC1CC(O)N2CCN(CC3CCOC3)C2=C1[N+](=O)[O-] (centres unmarked) [Compound 15]
3. CC1CC([N+](=O)[O-])=C2N(Cc3cnc(Cl)s3)CCN2C1O (centres unmarked) [Compound 21]

[89, 35, 100]

Would you mind giving Mortality (%) (500 ppm) Nilaparvata lugens for every molecule in the list below?
1. CCC1C([N+](=O)[O-])=C2N(Cc3ccc(Cl)nc3)CCN2C(O)C1C (centres unmarked) [Compound 35]
2. CCC1CC([N+](=O)[O-])=C2N(Cc3ccc(Cl)nc3)CCN2C1O (centres unmarked) [Compound 26]

1. 88
2. 100
